# system_under_test: human Dopamine D2L receptor (Homo sapiens, UniProt P14416)
# Construct: expressed in transfected cells; host or cells: CHO cells
# Sequence (P14416 whole entry): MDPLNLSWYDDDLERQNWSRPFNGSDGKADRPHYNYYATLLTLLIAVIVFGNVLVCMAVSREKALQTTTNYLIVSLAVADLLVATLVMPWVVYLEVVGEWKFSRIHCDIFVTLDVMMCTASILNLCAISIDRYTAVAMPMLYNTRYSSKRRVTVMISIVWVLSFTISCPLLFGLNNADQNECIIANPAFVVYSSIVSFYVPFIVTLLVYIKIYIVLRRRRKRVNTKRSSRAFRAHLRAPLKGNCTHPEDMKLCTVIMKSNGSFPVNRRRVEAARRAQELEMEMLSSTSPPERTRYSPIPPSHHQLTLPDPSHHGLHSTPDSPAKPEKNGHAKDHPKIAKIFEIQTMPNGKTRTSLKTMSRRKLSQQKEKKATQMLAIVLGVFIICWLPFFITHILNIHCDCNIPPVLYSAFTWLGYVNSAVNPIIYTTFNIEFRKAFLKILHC
# experiment_description: In vitro binding affinity for human D2L receptor ([3H]Spiperone)
# particulars: human D2L receptor-transfected CHO cell membranes, [3H]Spiperone; read-out: h-D2L (converted)
Reported IC50 is given for each of the following compounds.
Your answer is read as nM, so omit the unit and give the number.

These recorded examples may help you get a feel for the data.
CN(CC(=O)c1ccccc1)C[C@H]1CC2=C(O1)c1cc(F)ccc1Cc1ccccc12 [Compound 114] :: 794
O=C(NCc1ccccc1)N1CCN(CC2CC3=C(O2)c2cc(F)ccc2Oc2ccccc23)CC1 (centres unmarked) [Compound 88] :: 1260
OCCN1CCN(CC2CC3=C(O2)c2cc(F)ccc2Sc2ccccc23)CC1 (centres unmarked) [Compound 42] :: 5.01

What does the record list as IC50 for CNC[C@@H]1CC2=C(O1)c1cc(F)ccc1Cc1ccccc12 [Compound 4] ?
63.1

Quick check: IC50 of OC1CCN(CC2CC3=C(O2)c2cc(F)ccc2Sc2ccccc23)C1 (centres unmarked) [Compound 34] ?
10

Look up IC50: O=C(Nc1ccccc1)N1CCN(CC2CC3=C(O2)c2cc(F)ccc2Cc2ccccc23)CC1 (centres unmarked) [Compound 83]
251

I have this compound here, CN(C)C1CCN(CC2CC3=C(O2)c2cc(F)ccc2Cc2ccccc23)C1 (centres unmarked) [Compound 35] , and I need its recorded IC50.
39.8

Dear colleague, I am looking for the recorded IC50 of the following compound: C=CCn1c2c(c3ccccc31)C1=C(CC(CNC)O1)c1ccccc1S2 (centres unmarked) [Compound 95]
398
